Source listed as paper PMC9275698.

attribute measured: melting point

What the record says about `COc1c(CO)c(O)cc2c1C(=O)c1ccccc1C2=O` : melting point is 156 to 158 °C

What the record says about `COc1c(O)cc2c(c1O)C(=O)c1ccc(C)c(O)c1C2=O` : melting point is 235 to 239 °C

What the record says about `COCc1c(O)cc2c(c1O)C(=O)c1ccccc1C2=O` : melting point is 170 to 173 °C

What the record says about `O=Cc1c(O)cc2c(c1O)C(=O)c1ccccc1C2=O` : melting point is 219 to 222 °C

----------
System: HCT116 cells
Assay: MTT cell cytotoxicity assay, HCT116
Format: cell-based, human
Conditions: IC50 in normal cells (CCD841 CoN) / IC50 in HCT116
Short version: Selectivity index (SI) HCT116 at least 5 is fulfilled, less is not fulfilled.

A selection of reference data follows.
Cc1ccc2c(c1O)C(=O)c1ccc(O)cc1C2=O ... fulfilled
O=Cc1c(O)cc2c(c1O)C(=O)c1ccccc1C2=O ... not fulfilled
COc1c(O)cc2c(c1O)C(=O)c1ccc(C)c(O)c1C2=O ... not fulfilled

**Q:** State whether the measured Selectivity index (SI) HCT116 reaches 5, counting equality as reaching it, for `COc1c(C=O)c(O)cc2c1C(=O)c1ccccc1C2=O`
**A:** fulfilled

**Q:** State whether the measured Selectivity index (SI) HCT116 reaches 5, counting equality as reaching it, for `Cc1ccc2c(c1O)C(=O)c1ccc(O)c(O)c1C2=O`
**A:** fulfilled

----------
System: LS174T cells
Assay: MTT cell cytotoxicity assay, LS174T
Assay type: cell-based, human
Settings: Homo sapiens, LS174T; MTT, 72 hours, mean ± SD
Where a name gives a salt, the structure may show the parent alone.
Attribute: IC50

The cases that follow already have their IC50 on record.
Cc1c(O)cc2c(c1O)C(=O)c1ccccc1C2=O ... > 50 µM
COc1c(CO)c(O)cc2c1C(=O)c1ccccc1C2=O ... > 50 µM
O=c1[nH]cc(F)c(=O)[nH]1 [5-Fluorouracil, 5-fluorouracil, reference compound] ... 4.16 µM
Cc1ccc2c(c1O)C(=O)c1ccc(O)c(O)c1C2=O ... 20.4 µM
COCc1c(O)cc2c(c1O)C(=O)c1ccccc1C2=O ... > 50 µM

What the record says about `COc1c(C=O)c(O)cc2c1C(=O)c1ccccc1C2=O` : IC50 is > 50 µM

What the record says about `COc1c(O)cc2c(c1O)C(=O)c1ccc(C)c(O)c1C2=O` : IC50 is > 50 µM

What the record says about COc1cccc2c1C(=O)c1c(O)c3c(c(O)c1C2=O)C[C@@](O)(C(=O)CO)C[C@@H]3O[C@H]1C[C@H](N)[C@H](O)[C@H](C)O1 [Doxorubicin hydrochloride, doxorubicin hydrochloride, reference compound] : IC50 is 2.27 µM

What the record says about `Cc1ccc2c(c1O)C(=O)c1ccc(O)cc1C2=O` : IC50 is > 50 µM

What the record says about `O=Cc1c(O)cc2c(c1O)C(=O)c1ccccc1C2=O` : IC50 is > 50 µM
